# Assay remarks: Plasma clearance in rhesus monkey
# Format: ADME, organism-based, Macaca mulatta
Reported endpoint: clearance (mL/min/kg)
Give just the numeric value; mL/min/kg need not be written.

What measured clearance goes with `CN(C)CCN1CCn2c(c(C3CCCCC3)c3ccc(C(=O)O)cc32)-c2ccccc2C1` ? 22

* * *

# Assay remarks: Metabolic stability in po dosed dog assessed as urinary excretion
# Format: ADME, organism-based, Canis lupus familiaris
# Stated conditions: urine, read-out: Stability
Reported endpoint: dose excreted

What measured dose excreted goes with `CN(C)CCN1CCn2c(c(C3CCCCC3)c3ccc(C(=O)O)cc32)-c2ccccc2C1` ? < 1%

* * *

# Assay remarks: Protein binding in human plasma
# Format: ADME, cell-free
# Stated conditions: read-out: PPB (converted)
fraction unbound values by entry
Please respond with just the number, no unit label.

{"Line notation": "CN(C)C(=O)Cn1c(-c2ccccc2)c(C2CCCCC2)c2ccc(C(=O)O)cc21", "fraction unbound": 0.029}

Next up:
What measured fraction unbound goes with `CN1Cc2ccccc2-c2c(C3CCCCC3)c3ccc(C(=O)O)cc3n2CC1=O` ? 0.003
